The measurements presented in this section are drawn from paper PMC5575254.

# study_system: mutant TREK-1 channels (Homo sapiens, UniProt O95069, T94A)
# Sequence (O95069 1-411 isoform O95069-2 T79A): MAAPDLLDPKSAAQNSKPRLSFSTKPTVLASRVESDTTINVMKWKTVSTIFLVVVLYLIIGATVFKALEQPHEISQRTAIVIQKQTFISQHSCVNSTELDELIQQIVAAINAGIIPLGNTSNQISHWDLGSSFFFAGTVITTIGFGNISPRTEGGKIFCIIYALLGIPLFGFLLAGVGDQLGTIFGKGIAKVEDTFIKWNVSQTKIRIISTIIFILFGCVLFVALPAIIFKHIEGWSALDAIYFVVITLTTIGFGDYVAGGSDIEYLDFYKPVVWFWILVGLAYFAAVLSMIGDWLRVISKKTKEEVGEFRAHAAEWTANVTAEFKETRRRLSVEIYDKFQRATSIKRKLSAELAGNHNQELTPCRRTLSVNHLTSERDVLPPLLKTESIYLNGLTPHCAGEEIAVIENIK
# experiment_description: Whole-cell voltage clamp of mutant TREK-1 channels
# experimental_conditions: T79A mutant
quantity: pIC50
pIC50 (log units): -log10 of the concentration in mol/L.

Query: Please look at this molecule and report its pIC50: CS(=O)(=O)N(CC(=O)N1CCc2ccccc2C1)c1ccc(Cl)cc1 [TKDC]
Reply: 5.62
